Molecular target: mTOR (Homo sapiens, UniProt P42345)
Construct: FLAG; made in house
Sequence (P42345 1362-2549): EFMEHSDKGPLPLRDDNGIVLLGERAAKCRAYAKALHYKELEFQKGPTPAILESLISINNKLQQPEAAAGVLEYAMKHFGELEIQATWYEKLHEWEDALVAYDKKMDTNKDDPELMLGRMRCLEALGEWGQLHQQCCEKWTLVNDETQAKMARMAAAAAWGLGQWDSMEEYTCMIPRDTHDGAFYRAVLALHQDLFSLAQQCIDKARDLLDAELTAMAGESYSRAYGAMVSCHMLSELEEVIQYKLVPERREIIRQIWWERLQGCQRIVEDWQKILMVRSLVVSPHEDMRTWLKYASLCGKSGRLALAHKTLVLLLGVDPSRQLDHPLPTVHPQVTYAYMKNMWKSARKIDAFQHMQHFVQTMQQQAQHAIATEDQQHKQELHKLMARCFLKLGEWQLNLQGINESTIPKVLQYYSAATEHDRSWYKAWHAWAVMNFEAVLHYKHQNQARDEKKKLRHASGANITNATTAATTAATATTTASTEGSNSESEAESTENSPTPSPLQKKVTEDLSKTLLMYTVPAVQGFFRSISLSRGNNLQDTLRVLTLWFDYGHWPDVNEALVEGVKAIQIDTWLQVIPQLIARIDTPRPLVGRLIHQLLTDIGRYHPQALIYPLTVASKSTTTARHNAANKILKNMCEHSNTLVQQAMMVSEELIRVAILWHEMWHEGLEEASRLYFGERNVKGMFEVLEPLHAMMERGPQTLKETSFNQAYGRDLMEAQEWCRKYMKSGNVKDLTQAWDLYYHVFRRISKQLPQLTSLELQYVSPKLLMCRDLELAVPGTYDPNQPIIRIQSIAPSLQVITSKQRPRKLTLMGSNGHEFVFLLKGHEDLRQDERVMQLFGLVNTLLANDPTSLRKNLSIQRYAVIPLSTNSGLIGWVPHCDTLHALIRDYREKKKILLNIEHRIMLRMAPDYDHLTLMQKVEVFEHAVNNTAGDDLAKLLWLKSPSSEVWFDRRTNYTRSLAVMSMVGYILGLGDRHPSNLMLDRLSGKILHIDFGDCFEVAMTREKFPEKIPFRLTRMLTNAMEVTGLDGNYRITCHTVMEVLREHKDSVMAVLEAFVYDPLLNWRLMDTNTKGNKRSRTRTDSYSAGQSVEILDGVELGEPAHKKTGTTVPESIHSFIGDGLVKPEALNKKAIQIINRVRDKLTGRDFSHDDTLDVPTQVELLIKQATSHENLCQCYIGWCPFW
Assay: In Vitro mTOR Kinase Assay (Echo), Test (a)(ii)
Type: biochemical
Conditions: read-out: mTOR Kinase Assay (Echo)
pIC50: −log10 of the molar value.
METRIC: pIC50

These solved cases illustrate the format of a correct answer.
[
  {
    "COMPOUND": "C[C@H]1COCCN1c1cc(C2(S(C)(=O)=O)CC2)nc(-c2ccc(NC(=O)NCC3CC3)cc2)n1 [Example 2m]",
    "pIC50": 8.23
  },
  {
    "COMPOUND": "C[C@H]1COCCN1c1cc(C2(S(C)(=O)=O)CC2)nc(-c2ccc(NC(=O)Nc3ccn(C)n3)cc2)n1 [Example 2ad]",
    "pIC50": 9.15
  },
  {
    "COMPOUND": "C[C@H]1COCCN1c1cc(C2(S(C)(=O)=O)CCCC2)nc(-c2ccc(NC(=O)NCCO)cc2)n1 [Example 4e]",
    "pIC50": 8.92
  },
  {
    "COMPOUND": "C[C@H]1COCCN1c1cc(C2(S(C)(=O)=O)CC2)nc(-c2ccc(NC(=O)Nc3ccc(F)cc3)cc2)n1 [Example 2p]",
    "pIC50": 8.57
  },
  {
    "COMPOUND": "C[C@H]1COCCN1c1cc(C2(S(=O)(=O)c3ccccc3C(F)(F)F)CC2)nc(-c2ccc(NC(=O)Nc3cnn(C)c3)cc2)n1 [Example 10m]",
    "pIC50": 8.30
  }
]

P: C[C@H]1COCCN1c1cc(C2(S(=O)(=O)c3ccncc3)CC2)nc(-c2ccc(NC(=O)NC3CC3)cc2)n1 [Example 6m]
Q: CS(=O)(=O)C1(c2cc(N3CCOCC3)nc(-c3ccc(NC(=O)NC4CC4)cc3)n2)CC1 [Example 12]
Asked: Between the entries labelled P and Q , which has a larger pIC50 value on record? Lab note: record the label of whichever item you select.
Given back: P
(P: 9.03, Q: 8.38)

A: CCCNC(=O)Nc1ccc(-c2nc(N3CCOC[C@@H]3C)cc(C3(S(=O)(=O)c4ccc(F)cc4)CC3)n2)cc1 [Example 8h]
B: C[C@H]1COCCN1c1cc(C2(S(=O)(=O)C3CC3)CC2)nc(-c2ccc(NC(=O)NCCN3CCCC3)cc2)n1 [Example 3p]
C: CC(C)CNC(=O)Nc1ccc(-c2nc(N3CCOC[C@@H]3C)cc(C3(S(=O)(=O)c4ccc(F)cc4)CC3)n2)cc1 [Example 8i]
Asked: Please list these in order of increasing pIC50. Thank you! Present the labels in the sequence the task asks for.
Given back: B, C, A
(B: 6.71, C: 7.70, A: 8.75)

A: CNC(=O)Nc1ccc(-c2nc(N3CCOC[C@@H]3C)cc(C3(S(C)(=O)=O)CCCC3)n2)cc1 [Example 4]
B: CCCNC(=O)Nc1ccc(-c2nc(N3CCOC[C@@H]3C)cc(C3(S(=O)(=O)C(C)C)CC3)n2)cc1 [Example 7h]
C: CCCNC(=O)Nc1ccc(-c2nc(N3CCOC[C@@H]3C)cc(C3(S(C)(=O)=O)CCC3)n2)cc1 [Example 5h]
Asked: Arrange items by their pIC50 values in increasing order. List the labels, following the order given in the request.
Given back: B, C, A

====

Biological target: mTOR (Homo sapiens, UniProt P42345)
Construct: FLAG; made in house
Assay: In Vitro mTOR Kinase Assay (Echo), Test (a)(ii)
Type: biochemical
Conditions: table of enzyme assay Test (a)(ii); read-out: Test (a)(ii) IC50
pIC50: −log10 of the molar value.
METRIC: pIC50

Examples with their reported pIC50 follow.
[
  {
    "MOLECULE": "C[C@H]1COCCN1c1cc(C2(S(C)(=O)=O)CCCC2)nc(-c2cnc(NC(=O)NCCO)nc2)n1 [Example 14u]",
    "METRIC": "pIC50",
    "EXPERIMENTAL_RESULT": 6.91
  },
  {
    "MOLECULE": "Cc1csc(S(=O)(=O)C2(c3cc(N4CCOC[C@@H]4C)nc(-c4ccc(NC(=S)NCCO)cc4)n3)CC2)n1 [Example 37r]",
    "METRIC": "pIC50",
    "EXPERIMENTAL_RESULT": 8.79
  }
]

I: C[C@H]1COCCN1c1cc(C2(S(=O)(=O)c3ccccc3)CC2)nc(-c2ccc(NC(=O)Nc3cn(C)cn3)cc2)n1 [Example 36eb]
II: CNC(=O)Nc1ccc(-c2nc(N3CCOC[C@@H]3C)cc(C3(S(=O)(=O)c4ccc(C(=O)N(C)C)cn4)CC3)n2)cc1
III: Cc1noc(C)c1S(=O)(=O)C1(c2cc(N3CCOC[C@@H]3C)nc(-c3ccc(NC(=O)Nc4cnn(C)c4)cc3)n2)CC1 [Example 59g]
IV: C[C@H]1COCCN1C(=O)C1(c2cc(N3CCOCC3)nc(-c3ccc(NC(=O)NC4CC4)cc3)n2)CC1 [Example 33a]
Asked: // sort entries: pIC50, high to low Kindly provide the labels arranged according to the requested ordering.
Given back: II, I, IV, III

====

Target: mTOR (Homo sapiens, UniProt P42345)
Construct: FLAG; made in house
Assay: In Vitro mTOR Kinase Assay (Echo), Test (a)(ii)
Assay type: biochemical
Conditions: table of enzyme assay Test (a)(ii); read-out: Test (a)(ii) IC50
pIC50: −log10 of the molar value.
METRIC: pIC50

Known pIC50 results, listed for orientation:
[
  {
    "MOLECULE": "C[C@H]1COCCN1c1cc(C2(S(=O)(=O)CCCO)CCC2)nc(-c2ccc(NC(=O)NCC(F)F)cc2)n1 [Example 43o]",
    "EXPERIMENTAL_RESULT": 7.80
  },
  {
    "MOLECULE": "C[C@H]1COCCN1c1cc(C2(S(=O)(=O)c3ncc[nH]3)CC2)nc(-c2ccc(NC(=O)NC3CC3)cc2)n1 [Example 40a]",
    "EXPERIMENTAL_RESULT": 8.66
  },
  {
    "MOLECULE": "C[C@H]1COCCN1c1cc(C2(S(=O)(=O)c3nccs3)CC2)nc(-c2ccc(NC(=S)NCCO)cc2)n1",
    "EXPERIMENTAL_RESULT": 9.00
  }
]

I: C[C@H]1COCCN1c1cc(C2(S(=O)(=O)c3ccccn3)CC2)nc(-c2ccc(NC(=O)Nc3ccc(C(F)(F)F)cc3)cc2)n1 [Example 28i]
II: CCNC(=O)Nc1ccc(-c2nc(N3CCOC[C@@H]3C)cc(C3(S(=O)(=O)c4nc(C)cs4)CC3)n2)cc1 [Example 25e]
III: C[C@H]1COCCN1c1cc(C2(S(=O)(=O)C(C)(C)C)CC2)nc(-c2ccc(NC(=O)Nc3cnn(C)c3)cc2)n1 [Example 18m]
Asked: List the 3 entries from lowest pIC50 to highest pIC50 value. A complete answer lists every label in the requested sequence.
Given back: III, I, II

1: Cc1csc(S(=O)(=O)C2(c3cc(N4CCOC[C@@H]4C)nc(-c4ccc(NC(=O)NCCO)cc4)n3)CC2)n1 [Example 25g]
2: CNC(=O)Nc1ccc(-c2nc(N3CCOC[C@@H]3C)cc(C3(S(=O)(=O)c4ncc[nH]4)CC3)n2)cc1
3: Cc1csc(S(=O)(=O)C2(c3cc(N4CCOCC4)nc(-c4ccc(NC(=O)NCCO)cc4)n3)CC2)n1 [Example 42a]
4: CNC(=S)Nc1ccc(-c2nc(N3CCOC[C@@H]3C)cc(C3(S(=O)(=O)CCCO)CCC3)n2)cc1 [Example 99a]
Asked: Ordering: ascending pIC50. Reply with the item labels sorted in the order that was asked for.
Given back: 4, 2, 3, 1
(4: 7.36, 2: 8.36, 3: 8.58, 1: 8.84)

A: C[C@H]1COCCN1c1cc(C2(S(=O)(=O)c3ccc(C#N)cc3)CC2)nc(-c2ccc(NC(=O)NCC(F)F)cc2)n1 [Example 77d]
B: Cc1csc(S(=O)(=O)C2(c3cc(N4CCOC[C@@H]4C)nc(-c4ccc(NC(=O)NC(C)C)cc4)n3)CC2)n1 [Example 25d]
Asked: Field: lower recorded pIC50 (choose A or B ) Give the label under which the chosen entry appears.
Given back: A
(A: 8.00, B: 8.82)

====

Target: mTOR (Homo sapiens, UniProt P42345)
Construct: FLAG; made in house
Experiment: In Vitro mTOR Kinase Assay (Echo), Test (a)(ii)
Assay type: biochemical
Conditions: table of enzyme assay Test (a)(ii); read-out: Test (a)(ii) IC50
pIC50: −log10 of the molar value.
METRIC: pIC50

a: C[C@H]1COCCN1c1cc(C2(S(=O)(=O)c3ccccn3)CC2)nc(-c2ccc(NC(=O)Nc3cnn(C)c3)cc2)n1 [Example 28l]
b: C[C@H]1COC[C@H](C)N1c1cc(C2(S(=O)(=O)C3CC3)CC2)nc(-c2ccc(NC(=O)NC3CC3)cc2)n1
Asked: Select the item with the higher value of pIC50 from the options a and b listed. Let me know the label of the one you choose.
Given back: a

I: Cc1nn(C(F)F)c(C)c1S(=O)(=O)C1(c2cc(N3CCOC[C@@H]3C)nc(-c3ccc(NC(=O)NC4CC4)cc3)n2)CC1
II: CNC(=O)Nc1ccc(-c2nc(N3CCOCC3)cc(C3(S(=O)(=O)C4CC4)CC3)n2)cc1 [Example 13a]
Asked: # returns the entry with the larger pIC50; inputs I and II State the label of the item chosen.
Given back: II
